B1: ZNF75A (parent)
chain: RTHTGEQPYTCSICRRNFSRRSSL

Variants of: B1
Assay: protein stability index of a GFP-peptide fusion (GPS, HEK-293T) (PSI 1-6); higher = more stable;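 note: lentivirally expressed fusions sorted by FACS into six bins by GFP to DsRed ratio, PSI derived from sequencing read proportions per bin multiplied by bin number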
Details: c terminus: a fixed tail appended
observation type: protein stability index
# output: bare number, no unit

What the record says about RTHTGEQPYTCRICRRNFSRRSSL : protein stability index is 3.07

// field: protein stability index; key: RTHTGEQPYTCSICRRNFSRRSLL ; value = 2.15

In plain terms, RTHTHEQPYTCSICRRNFSRRSSL has a documented protein stability index of 3.52

Measured protein stability index, RTHTGEQPYTCSICRRNFSRRSYL : 1.78

Notebook: RTHTGEQPYSCSICRRNFSRRSSL , protein stability index read as 2.01

Please fill in: protein stability index reported for RTHTGEQPYTCSICRRNFSRRPSL = 2.76

The reported value for RTHTGEQPYTCSITRRNFSRRSSL in terms of protein stability index is 4.21

Lab note: measured protein stability index of RTHTGEPPYTCSICRRNFSRRSSL was 2.57

// RTHTGERPYTCSICRRNFSRRSSL : protein stability index value = 2.96

RTHTGEQPYTCSIQRRNFSRRSSL yielded protein stability index of 3.72

Input RTHTGEQPYTCSIPRRNFSRRSSL . Output protein stability index: 3.6

Measured protein stability index, RTETGEQPYTCSICRRNFSRRSSL : 3.1

protein stability index reported for this variant RTHTGEQPYTCSICFRNFSRRSSL : 1.85

# protein stability index (variant: RTHTGEQPYTCSICRRNFSRRQSL ) is 2.77

Reported protein stability index for RTHTGEQPYTYSICRRNFSRRSSL was 3.3

protein stability index recorded for this variant, RTHTLEQPYTCSICRRNFSRRSSL , is 2.73

Recorded result, RTHTGEQPWTCSICRRNFSRRSSL , protein stability index: 3.02

Lab note: RTHTGEQPYTFSICRRNFSRRSSL gave protein stability index of 3.73

Lookup result for LTHTGEQPYTCSICRRNFSRRSSL ; measured protein stability index: 2.28

Per the record, RTHTGFQPYTCSICRRNFSRRSSL has protein stability index of 3.33

# protein stability index of RTHTTEQPYTCSICRRNFSRRSSL = 3.25

Consider RTHTGEQPYTCSICRRNFSWRSSL . Its measured protein stability index is 1.52
